Assay: photochromic response rates on an optical bench (test squares)
Format: physicochemical
Conditions: UV exposure continued for 20 minutes; 75° F. (23.9° C.); same test squares

| compound | ΔOD @ SATURATION |
| --- | --- |
| CC(=O)Oc1c(Sc2ccccc2)c2c(c3ccccc13)OC1(C=C2)C2CC3CC(C2)CC1C3 (stereo not shown) [Example 8] | 0.04 |
| COc1c(C)c2c(c3ccccc13)OC1(C=C2)C2CC3CC(C2)CC1C3 (stereo not shown) [Example 9] | 0.17 |
| COc1ccc(C2(c3ccc(OC)cc3)C=Cc3c(-c4ccc(OC)cc4OC)c(OC(C)=O)c4ccccc4c3O2)cc1 [Example 2] | 0.55 |
| COc1ccc(C2(c3ccc(OC)cc3)C=Cc3c(C(O)(c4ccccc4)c4ccccc4)c(OC)c4ccccc4c3O2)cc1 [Example 11] | 0.19 |

###

Catalogue of LAMBDA MAX (VISIBLE) values
Assay: lambda max of the activated (colored) form in the visible spectrum
Assay type: physicochemical
Conditions: activated form in a diethylene glycol bis(allyl carbonate) composition
readout_type: LAMBDA MAX (VISIBLE) (nm)

| compound | reported_measurement |
| --- | --- |
| COc1ccc(C2(c3ccc(OC)cc3)C=Cc3c(C(O)(c4ccccc4)c4ccccc4)c(O)c4ccccc4c3O2)cc1 | 482 |
| COc1ccc(C2(c3ccc(OC)cc3)C=Cc3c(C)c(OC(C)=O)c4ccccc4c3O2)cc1 | 506 |
| CC(=O)Oc1c(Sc2ccccc2)c2c(c3ccccc13)OC1(C=C2)C2CC3CC(C2)CC1C3 (centres unmarked) | 459 |
| COc1ccc(C2(c3ccc(OC)cc3)C=Cc3c(Cl)c(OC(C)=O)c4ccccc4c3O2)cc1 | 462 |
| COc1ccc(C2(c3ccc(OC)cc3)C=Cc3c(Sc4ccccc4)c(O)c4ccccc4c3O2)cc1 | 516 |
| COc1ccc(C2(c3ccc(OC)cc3)C=Cc3c(C(O)(c4ccccc4)c4ccccc4)c(OC)c4ccccc4c3O2)cc1 | 467 |
| COc1ccc(C2(c3ccc(OC)cc3)C=Cc3c(-c4ccc(OC)cc4OC)c(OC(C)=O)c4ccccc4c3O2)cc1 | 511 |
| Oc1c(Sc2ccccc2)c2c(c3ccccc13)OC1(C=C2)C2CC3CC(C2)CC1C3 (centres unmarked) | 462 |
| COc1ccc(C2(c3ccc(OC)cc3)C=Cc3c(Sc4ccccc4)c(OC(C)=O)c4ccccc4c3O2)cc1 | 516 |
| COc1c(C)c2c(c3ccccc13)OC1(C=C2)C2CC3CC(C2)CC1C3 (centres unmarked) | 462 |
| COc1ccc(C2(c3ccc(OC)cc3)C=Cc3c(-c4cccn4C)c(OC(C)=O)c4ccccc4c3O2)cc1 | 513 |

###

Catalogue of Bleach Rate (T1/2) values
Experiment: photochromic response rates on an optical bench (test squares)
Type: physicochemical
Settings: time for absorbance of activated form to reach one half the highest absorbance; room temperature (75° F., 23.9° C.), after removal of activating light

| molecule | Bleach Rate (T1/2) |
| --- | --- |
| Oc1c(Sc2ccccc2)c2c(c3ccccc13)OC1(C=C2)C2CC3CC(C2)CC1C3 (centres unmarked) | 3.08 min |
| COc1ccc(C2(c3ccc(OC)cc3)C=Cc3c(C(O)(c4ccccc4)c4ccccc4)c(OC)c4ccccc4c3O2)cc1 | 1.42 min |
| COc1ccc(C2(c3ccc(OC)cc3)C=Cc3c(Sc4ccccc4)c(O)c4ccccc4c3O2)cc1 | > 10 min |
| COc1ccc(C2(c3ccc(OC)cc3)C=Cc3c(C)c(OC(C)=O)c4ccccc4c3O2)cc1 | 2 min |
| COc1ccc(C2(c3ccc(OC)cc3)C=Cc3c(Cl)c(OC(C)=O)c4ccccc4c3O2)cc1 | 0.9 min |
| COc1ccc(C2(c3ccc(OC)cc3)C=Cc3c(Sc4ccccc4)c(OC(C)=O)c4ccccc4c3O2)cc1 | 0.7 min |
| COc1ccc(C2(c3ccc(OC)cc3)C=Cc3c(C(O)(c4ccccc4)c4ccccc4)c(O)c4ccccc4c3O2)cc1 | > 13.3 min |
| COc1c(C)c2c(c3ccccc13)OC1(C=C2)C2CC3CC(C2)CC1C3 (centres unmarked) | 2.55 min |

###

Catalogue of Bleach Rate (T1/2) values
Assay: photochromic response rates on an optical bench (test squares)
Assay type: physicochemical
Details: time for absorbance of activated form to reach one half the highest absorbance; room temperature (75° F., 23.9° C.), after removal of activating light
readout_type: Bleach Rate (T1/2) (min)

| compound | readout_type | readout_units | reported_measurement |
| --- | --- | --- | --- |
| COc1ccc(C2(c3ccc(OC)cc3)C=Cc3c(-c4ccc(OC)cc4OC)c(OC(C)=O)c4ccccc4c3O2)cc1 [Example 2] | Bleach Rate (T1/2) | min | 4.13 |
| CC(=O)Oc1c(Sc2ccccc2)c2c(c3ccccc13)OC1(C=C2)C2CC3CC(C2)CC1C3 (stereo not drawn) [Example 8] | Bleach Rate (T1/2) | min | 1.13 |
| COc1ccc(C2(c3ccc(OC)cc3)C=Cc3c(-c4cccn4C)c(OC(C)=O)c4ccccc4c3O2)cc1 [Example 1] | Bleach Rate (T1/2) | min | 1.23 |

###

Catalogue of ΔOD @ SATURATION values
Experiment: photochromic response rates on an optical bench (test squares)
Assay type: physicochemical
Details: UV exposure continued for 20 minutes; 75° F. (23.9° C.); same test squares
Experimental: Testing was done with the photochromic naphthopyrans of the Examples incorporated into polymeric samples by the following method. The quantity of naphthopyran calculated to yield a 1.5 time 10^-3 molal solution was added to a flask containing 50 grams of a monomer blend of 4 parts ethoxylated bisphenol A dimethacrylate (BPA 2EO DMA), 1 part poly(ethyleneglycol) 600 dimethacrylate, and 0.033 weight percent 2,2'-azobis (2-methyl propionitrile) (AIBN). […]
readout_type: ΔOD @ SATURATION

| structure_smiles | readout_type | reported_measurement |
| --- | --- | --- |
| COc1ccc(C2(c3ccc(OC)cc3)C=Cc3c(C)c(OC(C)=O)c4ccccc4c3O2)cc1 | ΔOD @ SATURATION | 0.37 |
| COc1ccc(C2(c3ccc(OC)cc3)C=Cc3c(-c4cccn4C)c(OC(C)=O)c4ccccc4c3O2)cc1 | ΔOD @ SATURATION | 0.25 |
| COc1ccc(C2(c3ccc(OC)cc3)C=Cc3c(Sc4ccccc4)c(O)c4ccccc4c3O2)cc1 | ΔOD @ SATURATION | 1.76 |
| COc1ccc(C2(c3ccc(OC)cc3)C=Cc3c(Cl)c(OC(C)=O)c4ccccc4c3O2)cc1 | ΔOD @ SATURATION | 0.07 |

###

Catalogue of ΔOD/MIN SENSITIVITY values
Test: photochromic response rates on an optical bench (test squares)
Assay type: physicochemical
Conditions: measured over first five seconds of UV exposure, expressed per minute; 75° F. (23.9° C.); 1.5 x 10^-3 molal in BPA 2EO DMA / poly(ethyleneglycol) 600 dimethacrylate polymer
readout_type: ΔOD/MIN SENSITIVITY

| compound | readout_type | reported_measurement |
| --- | --- | --- |
| COc1ccc(C2(c3ccc(OC)cc3)C=Cc3c(-c4cccn4C)c(OC(C)=O)c4ccccc4c3O2)cc1 | ΔOD/MIN SENSITIVITY | 0.16 ΔOD/MIN |
| COc1ccc(C2(c3ccc(OC)cc3)C=Cc3c(C)c(OC(C)=O)c4ccccc4c3O2)cc1 | ΔOD/MIN SENSITIVITY | 0.14 ΔOD/MIN |
| Oc1c(Sc2ccccc2)c2c(c3ccccc13)OC1(C=C2)C2CC3CC(C2)CC1C3 (centres unmarked) | ΔOD/MIN SENSITIVITY | 0.15 ΔOD/MIN |
| COc1ccc(C2(c3ccc(OC)cc3)C=Cc3c(C(O)(c4ccccc4)c4ccccc4)c(OC)c4ccccc4c3O2)cc1 | ΔOD/MIN SENSITIVITY | 0.10 ΔOD/MIN |
| COc1ccc(C2(c3ccc(OC)cc3)C=Cc3c(-c4ccc(OC)cc4OC)c(OC(C)=O)c4ccccc4c3O2)cc1 | ΔOD/MIN SENSITIVITY | 0.15 ΔOD/MIN |
| CC(=O)Oc1c(Sc2ccccc2)c2c(c3ccccc13)OC1(C=C2)C2CC3CC(C2)CC1C3 (centres unmarked) | ΔOD/MIN SENSITIVITY | 0.10 ΔOD/MIN |
| COc1c(C)c2c(c3ccccc13)OC1(C=C2)C2CC3CC(C2)CC1C3 (centres unmarked) | ΔOD/MIN SENSITIVITY | 0.12 ΔOD/MIN |
| COc1ccc(C2(c3ccc(OC)cc3)C=Cc3c(Sc4ccccc4)c(O)c4ccccc4c3O2)cc1 | ΔOD/MIN SENSITIVITY | 0.34 ΔOD/MIN |
| COc1ccc(C2(c3ccc(OC)cc3)C=Cc3c(Cl)c(OC(C)=O)c4ccccc4c3O2)cc1 | ΔOD/MIN SENSITIVITY | 0.08 ΔOD/MIN |
| COc1ccc(C2(c3ccc(OC)cc3)C=Cc3c(C(O)(c4ccccc4)c4ccccc4)c(O)c4ccccc4c3O2)cc1 | ΔOD/MIN SENSITIVITY | 0.05 ΔOD/MIN |
| COc1ccc(C2(c3ccc(OC)cc3)C=Cc3c(Sc4ccccc4)c(OC(C)=O)c4ccccc4c3O2)cc1 | ΔOD/MIN SENSITIVITY | 0.22 ΔOD/MIN |
